- System: HTT mRNA
- methodNotes: RT-qPCR splicing assay, HTT mRNA canonical (CJ) and alternative (AJ) junction
- Format: cell-based, human
- appliedConditions: Homo sapiens, HTT canonical junction mRNA, RT-qPCR; read-out: HTT CJ (decrease in CJ mRNA levels, IC50)
pIC50: −log10 of the molar value. Structures can show the parent of a compound that is named as a salt.
In this section we review reported pIC50 values for a set of compounds.

// below: answered compounds
compound: CN1CCC(N(C)c2ccc3nc(-c4cc5cn(C)nc5cc4O)ccc3n2)CC1
targetDesc: HTT mRNA
pIC50: 6.00 to 7.00
--
compound: CCC1CN(c2ccc3nc(-c4cc5cn(C)nc5cc4O)ccc3n2)CCN1 (centres unmarked)
targetDesc: HTT mRNA
pIC50: 6.00 to 7.00
--
compound: Cc1c(O)c(-c2ccc3nc(N4CC[C@@H](NC(C)(C)C)C4)ccc3n2)cc2cn(C)nc12
targetDesc: HTT mRNA
pIC50: > 7.00

Q: What pIC50 value was documented for this compound, Cc1nc2c(F)c(O)c(-c3ccc4nc(N5CC[C@@H](NC6(CF)CC6)C5)ccc4n3)cc2o1 (single isomer, unassigned) [Compound 372] ?
Result: > 7.00

Q: Next up: Cc1nc2cc(O)c(-c3ccc4nc(N5CC[C@H](N[C@H]6C[C@@H](F)C6)C5)ccc4n3)cc2o1 (stereo in doubt)
Result: > 7.00

Q: Next up: Cn1cc2cc(-c3ccc4nc(N5CCC(NC6CCC6)C5)ccc4n3)c(O)c(F)c2n1 (centres unmarked)
Result: > 7.00

Q: Next up: Cn1cc2cc(-c3ccc4nc(N5CC[C@H](NC6CC6)C5)ccc4n3)c(O)cc2n1
Result: > 7.00

Q: Next up: Cn1cc2cc(-c3ccc4nc(N5CC[C@@H](N)C5)ccc4n3)c(O)c(F)c2n1 (single isomer, unassigned)
Result: > 7.00

Q: Next up: Cc1cn2nc(-c3ccc4nc(N5CCC(NC(C)(C)C)C5)ccc4n3)cc2c(C)n1 (centres unmarked)
Result: > 7.00

Q: Next up: Cc1c(O)c(-c2nc(-c3c[nH]nn3)c3cc(N4CCNCC4)ccc3n2)cc2cn(C)nc12 [Compound 538, hydrochloride]
Result: 5.00 to 6.00

Q: Next up: Cn1cc2cc(-c3ccc4nc(N5CC[C@H](NC(C)(C)C)C5)ccc4n3)c(O)c(F)c2n1 (single isomer, unassigned)
Result: > 7.00

###

- System: MYB
- methodNotes: HiBiT protein abundance assay, MYB (K562 HiBiT knock-in)
- Assay type: cell-based, human
- appliedConditions: HiBiT knock-in K562 cells, 24 hours, top dose 10 μM
pIC50: −log10 of the molar value.
measuredEndpoint: pIC50

compound: C[C@H]1C[C@H](c2ccc3nc(-c4cc5cn(C)nc5cc4O)ccc3n2)CCN1
targetDesc: MYB
result: 6.00 to 7.00

Q: Quick check: pIC50 on MYB, item COc1cc2nc(C)sc2cc1-c1ccc2nc(N3CCC(NC(C)(C)C)C3)ccc2n1 (centres unmarked) ?
Result: 5.00 to 6.00

Q: Next up: Cn1cc2cc(-c3ccc4nc(N5CCC56CCNCC6)ccc4n3)c(O)cc2n1
Result: 6.00 to 7.00

Q: Next up: C[C@@H]1CN(c2ccc3nc(-c4cc5cn(C)nc5c(F)c4O)nc(C#N)c3c2)C[C@H](C)N1
Result: > 7.00

Q: Next up: Cn1cc2cc(-c3ncc4nc(C5CCNCC5)ccc4n3)c(O)c(F)c2n1
Result: > 7.00

Q: Next up: Cn1cc2cc(-c3ccc4nc([C@H]5CCNC6(CC6)C5)ccc4n3)c(O)cc2n1 (single isomer, unassigned)
Result: > 7.00
